Tested on: MDA-MB-231
Experiment: Cytotoxicity against human MDA-MB-231 cells under hypoxic condition after 48 hrs by natural red method
Assay type: functional, cell-based
Conditions: MDA-MB-231, 48 h
Each record here notes measured IC50.
Write the answer as a number in nM, unit excluded.

Lookup result for `CC(=O)C1=CC[C@H]2[C@]3(C)CC[C@H]4C(C)(C)CCC[C@]4(CO)[C@H]3CC(=O)[C@]2(C)[C@H]1C=O` ; measured IC50: 300

Lookup result for `COC(=O)[C@]12CCCC(C)(C)[C@@H]1CC[C@@]1(C)[C@@H]3CC=C(C(C)=O)[C@H](C=O)[C@@]3(C)C(=O)C[C@@H]12` ; measured IC50: 2000

----------
Each record here notes measured IC50.
Tested on: MCF7
Test: Cytotoxicity against human MCF7 cells under hypoxic condition after 48 hrs by natural red method
Type: functional, cell-based
Settings: MCF7, 48 h

Some solved cases for reference:
{"columns": ["molecule", "readout_kind", "observed_result"],
 "data": [
  ["C/C(=C\\CCc1ccoc1)CC/C=C(\\C)CCCC1=CC(=O)OC1 [FUROSPONGOLIDE]", "IC50", "> 30000 nM"],
  ["COC(=O)[C@]12CCCC(C)(C)[C@@H]1CC[C@@]1(C)[C@@H]3CC=C(C(C)=O)[C@H](C=O)[C@@]3(C)C(=O)C[C@@H]12", "IC50", "6800 nM"],
  ["CC(=O)C1=CC[C@H]2[C@]3(C)CC[C@H]4C(C)(C)CCC[C@]4(CO)[C@H]3C[C@H](O)[C@]2(C)[C@H]1C=O", "IC50", "700 nM"]
]}

Now for another entry.
Lookup result for `CC(=O)C1=CC[C@H]2[C@]3(C)CC[C@H]4C(C)(C)CCC[C@]4(CO)[C@H]3CC(=O)[C@]2(C)[C@H]1C=O` ; measured IC50: 600 nM

----------
Experiment: Selectivity for inhibition of hypoxia-induced HIF1 activation in human T47D cells over cytotoxicity to human T47D cells
Assay type: toxicity, cell-based
readout_kind: selectivity ratio

Lookup result for C/C(=C\CCc1ccoc1)CC/C=C(\C)CCCC1=CC(=O)OC1 [FUROSPONGOLIDE] ; measured selectivity ratio: > 10

----------
Experiment: Selectivity ratio of IC50 for inhibition of hypoxia-induced HIF1 activation in human T47D cells to IC50 for cytotoxicity to human T47D cells
Format: toxicity, cell-based
Details: read-out: Ratio IC50
readout_kind: selectivity ratio
// return just the number, without any unit appended

Lookup result for `CC(=O)C1=CC[C@H]2[C@]3(C)CC[C@H]4C(C)(C)CCC[C@]4(CO)[C@H]3C[C@H](O)[C@]2(C)[C@H]1C=O` ; measured selectivity ratio: 3

----------
Molecular target: Hypoxia inducible factors; HIF-1-alpha, HIF-2-alpha (Homo sapiens, UniProt Q16665+Q99814)
Experiment: Inhibition of hypoxia-induced HIF1 activation in human T47D cells after 16 hrs by pTK-HRE3-luciferase reporter gene assay
Format: cell-based
readout_kind: IC50 (µM)
Write the answer as a number in µM, unit excluded.

Lookup result for `CC(=O)C1=CC[C@H]2[C@]3(C)CC[C@H]4C(C)(C)CCC[C@]4(CO)[C@H]3CC(=O)[C@]2(C)[C@H]1C=O` ; measured IC50: 0.5

Lookup result for `COC(=O)[C@]12CCCC(C)(C)[C@@H]1CC[C@@]1(C)[C@@H]3CC=C(C(C)=O)[C@H](C=O)[C@@]3(C)C(=O)C[C@@H]12` ; measured IC50: 2.7

Lookup result for C/C(=C\CCc1ccoc1)CC/C=C(\C)CCCC1=CC(=O)OC1 [FUROSPONGOLIDE] ; measured IC50: 2.9

Lookup result for `CC(=O)C1=CC[C@H]2[C@]3(C)CC[C@H]4C(C)(C)CCC[C@]4(CO)[C@H]3C[C@H](O)[C@]2(C)[C@H]1C=O` ; measured IC50: 0.4

----------
Each record here notes measured IC50.
Molecular target: Hypoxia inducible factors; HIF-1-alpha, HIF-2-alpha (Homo sapiens, UniProt Q16665+Q99814)
Assay: Inhibition of 1,10-phenanthroline-induced HIF1 activation in human PC3 cells after 16 hrs by pTK-HRE3-luciferase reporter gene assay
Type: cell-based
Details: pc-3
Write the answer as a number in µM, unit excluded.

Some solved cases for reference:
{"columns": ["smiles", "target_under_test", "reading_unit", "IC50"],
 "data": [
  ["COC(=O)[C@]12CCCC(C)(C)[C@@H]1CC[C@@]1(C)[C@@H]3CC=C(C(C)=O)[C@H](C=O)[C@@]3(C)C(=O)C[C@@H]12", "Hypoxia inducible factors; HIF-1-alpha, HIF-2-alpha (Homo sapiens, UniProt Q16665+Q99814)", "µM", 9],
  ["CC(=O)C1=CC[C@H]2[C@]3(C)CC[C@H]4C(C)(C)CCC[C@]4(CO)[C@H]3C[C@H](O)[C@]2(C)[C@H]1C=O", "Hypoxia inducible factors; HIF-1-alpha, HIF-2-alpha (Homo sapiens, UniProt Q16665+Q99814)", "µM", 0.8]
]}

Now for another entry.
Kindly note: Hypoxia inducible factors; HIF-1-alpha, HIF-2-alpha (Homo sapiens, UniProt Q16665+Q99814), `CC(=O)C1=CC[C@H]2[C@]3(C)CC[C@H]4C(C)(C)CCC[C@]4(CO)[C@H]3CC(=O)[C@]2(C)[C@H]1C=O` , IC50 value reported: 1

----------
Test system: T47D
Assay: Cytotoxicity against human T47D cells under normoxic condition after 48 hrs by natural red method
Format: functional, cell-based
Each record here notes measured pIC50.
Please treat pIC50 as minus the base-10 logarithm of the molar concentration.

Some solved cases for reference:
{"columns": ["molecule", "pIC50"],
 "data": [
  ["CC(=O)C1=CC[C@H]2[C@]3(C)CC[C@H]4C(C)(C)CCC[C@]4(CO)[C@H]3C[C@H](O)[C@]2(C)[C@H]1C=O", 6.00],
  ["CC(=O)C1=CC[C@H]2[C@]3(C)CC[C@H]4C(C)(C)CCC[C@]4(CO)[C@H]3CC(=O)[C@]2(C)[C@H]1C=O", 5.92],
  ["COC(=O)[C@]12CCCC(C)(C)[C@@H]1CC[C@@]1(C)[C@@H]3CC=C(C(C)=O)[C@H](C=O)[C@@]3(C)C(=O)C[C@@H]12", 5.26]
]}

Now for another entry.
Kindly note: T47D, C/C(=C\CCc1ccoc1)CC/C=C(\C)CCCC1=CC(=O)OC1 [FUROSPONGOLIDE] , pIC50 value reported: 4.85

----------
Target: Hypoxia inducible factors; HIF-1-alpha, HIF-2-alpha (Homo sapiens, UniProt Q16665+Q99814)
Experiment: Inhibition of hypoxia-induced HIF1 activation in human PC3 cells after 16 hrs by pTK-HRE3-luciferase reporter gene assay
Assay type: cell-based
Settings: pc-3
readout_kind: IC50 (µM)
Write the answer as a number in µM, unit excluded.

Some solved cases for reference:
{"columns": ["smiles", "readout_kind", "observed_result"],
 "data": [
  ["CC(=O)C1=CC[C@H]2[C@]3(C)CC[C@H]4C(C)(C)CCC[C@]4(CO)[C@H]3CC(=O)[C@]2(C)[C@H]1C=O", "IC50", 0.9],
  ["CC(=O)C1=CC[C@H]2[C@]3(C)CC[C@H]4C(C)(C)CCC[C@]4(CO)[C@H]3C[C@H](O)[C@]2(C)[C@H]1C=O", "IC50", 0.5]
]}

Lookup result for `COC(=O)[C@]12CCCC(C)(C)[C@@H]1CC[C@@]1(C)[C@@H]3CC=C(C(C)=O)[C@H](C=O)[C@@]3(C)C(=O)C[C@@H]12` ; measured IC50: 7.7

----------
Biological target: Hypoxia inducible factors; HIF-1-alpha, HIF-2-alpha (Homo sapiens, UniProt Q16665+Q99814)
Test: Inhibition of 1,10-phenanthroline-induced HIF1 activation in human T47D cells after 16 hrs by pTK-HRE3-luciferase reporter gene assay
Format: cell-based
readout_kind: IC50 (µM)
Write the answer as a number in µM, unit excluded.

{"columns": ["compound", "IC50 (µM)"],
 "data": [
  ["CC(=O)C1=CC[C@H]2[C@]3(C)CC[C@H]4C(C)(C)CCC[C@]4(CO)[C@H]3C[C@H](O)[C@]2(C)[C@H]1C=O", 0.2]
]}

Lookup result for `COC(=O)[C@]12CCCC(C)(C)[C@@H]1CC[C@@]1(C)[C@@H]3CC=C(C(C)=O)[C@H](C=O)[C@@]3(C)C(=O)C[C@@H]12` ; measured IC50: 1

Lookup result for C/C(=C\CCc1ccoc1)CC/C=C(\C)CCCC1=CC(=O)OC1 [FUROSPONGOLIDE] ; measured IC50: 10.9

Lookup result for `CC(=O)C1=CC[C@H]2[C@]3(C)CC[C@H]4C(C)(C)CCC[C@]4(CO)[C@H]3CC(=O)[C@]2(C)[C@H]1C=O` ; measured IC50: 0.2
